# STUDY_SYSTEM: E3 ubiquitin-protein ligase UHRF1 (Homo sapiens)
# TEST: blockers of UHRF1 binding to methyl-oligo – biochemical, TR-FRET, human UHRF1, single concentration, counter-screen for MBD2 inhibitor project, primary screen (AID 687016);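 note: UHRF1 SRA domain binding a hemimethylated CpG hairpin DNA probe; 0% = median of test compound wells and 100% = reference inhibitor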
# CONDITION_INFO: UHRF1 binding to methylated oligo, at 4.4 µM, active compounds read high
About 2,800 (0.76%) of roughly 370,000 compounds were called active. The entries come from a sample that favours actives as a whole.
OUTCOME_MEASURE: inhibition (%)
# number only, unit % dropped from output

Answered examples (4):
MOLECULE: N#CCC[C@H]1CC[C@]2(CCCN(Cc3ccc(Cl)cc3)C2)O1
STUDY_SYSTEM: E3 ubiquitin-protein ligase UHRF1 (Homo sapiens)
inhibition [%]: 3.52
//
MOLECULE: Cc1ccc(CN2CC(C(=O)N3CCN(S(=O)(=O)c4ccccc4)CC3)CC2=O)cc1 (stereo not given)
STUDY_SYSTEM: E3 ubiquitin-protein ligase UHRF1 (Homo sapiens)
inhibition [%]: 9.15
//
MOLECULE: COc1ccc(S[C@]2(C(=O)N(C)C)CC(=O)N(c3ccc(OC)cc3)[C@@H]2c2ccc(OC)cc2)cc1
STUDY_SYSTEM: E3 ubiquitin-protein ligase UHRF1 (Homo sapiens)
inhibition [%]: 2.01
//
MOLECULE: CCN(CC)C(=O)CC[C@@H]1CC[C@]2(CCCN(S(=O)(=O)C3CCCCC3)C2)O1
STUDY_SYSTEM: E3 ubiquitin-protein ligase UHRF1 (Homo sapiens)
inhibition [%]: -0.55

Return reported inhibition; argument: CCN(CC(=O)Nc1ccc(NC(C)=O)cc1)C(=O)C1CC(=O)N(c2ccc3c(c2)OCCO3)C1 (stereo not given) 1.89
